Documented ED50 across a set of compounds
- Organism: Rattus norvegicus
- TEST DETAILS: Effective dose to reduce pain in carregenin induced thermal hyperalgesia assay in rat was determined
- Assay type: functional

These solved cases illustrate the format of a correct answer.
COCCOC1CCN(c2ccc(-c3cc(-c4cccc(Br)c4)c4c(N)ncnc4n3)nn2)CC1    3 µmol/kg
C/C(=N/OC1CCOCC1)C1(O)CCN(c2ccc(-c3cc(-c4cccc(Br)c4)c4c(N)ncnc4n3)cn2)CC1    5 µmol/kg
CCOC1CCN(c2ccc(-c3cc(-c4cccc(Br)c4)c4c(N)ncnc4n3)nn2)CC1    7 µmol/kg

Moving on to the next compound.
Problem: Given "Nc1ncnc2nc(-c3ccc(N4CCC(CCOC5CCOCC5)CC4)nn3)cc(-c3cccc(Br)c3)c12" , state its recorded ED50.
Result: 30 µmol/kg
